Target: UniProt:P03372
Sequence (P03372 whole entry): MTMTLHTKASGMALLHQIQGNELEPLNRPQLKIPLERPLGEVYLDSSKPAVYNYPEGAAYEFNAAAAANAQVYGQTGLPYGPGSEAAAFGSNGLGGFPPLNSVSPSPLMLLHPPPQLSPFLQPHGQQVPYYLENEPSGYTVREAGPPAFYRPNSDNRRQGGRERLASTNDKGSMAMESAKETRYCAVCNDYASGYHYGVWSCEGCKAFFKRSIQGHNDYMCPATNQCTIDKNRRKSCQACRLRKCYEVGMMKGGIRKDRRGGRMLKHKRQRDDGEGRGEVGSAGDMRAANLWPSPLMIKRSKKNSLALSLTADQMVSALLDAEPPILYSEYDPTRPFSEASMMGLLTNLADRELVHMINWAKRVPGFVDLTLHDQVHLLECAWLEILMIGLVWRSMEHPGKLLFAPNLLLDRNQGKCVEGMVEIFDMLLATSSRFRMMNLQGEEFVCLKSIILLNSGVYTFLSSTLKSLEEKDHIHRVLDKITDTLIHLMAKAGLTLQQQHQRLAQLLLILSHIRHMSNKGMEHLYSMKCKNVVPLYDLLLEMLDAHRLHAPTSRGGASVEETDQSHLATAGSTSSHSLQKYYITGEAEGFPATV
Test: cell-based
Type: cell-based
Details: reporter gene assay, HEK293T
measured_property: transcriptional activity profile on ERα

In [3]: df
Out[3]:
                                   compound  measured_value
0  Cc1cc(O)ccc1-c1ccc(-c2ccc(O)cc2C)[se]1 [Compound 2b]    superagonist
1  Oc1cc(-c2cc(Br)c(-c3ccc(F)c(O)c3)[se]2)ccc1F [Compound 6f]    superagonist

----------
Biological target: ERβ (Homo sapiens)
Sequence (Q92731 whole entry): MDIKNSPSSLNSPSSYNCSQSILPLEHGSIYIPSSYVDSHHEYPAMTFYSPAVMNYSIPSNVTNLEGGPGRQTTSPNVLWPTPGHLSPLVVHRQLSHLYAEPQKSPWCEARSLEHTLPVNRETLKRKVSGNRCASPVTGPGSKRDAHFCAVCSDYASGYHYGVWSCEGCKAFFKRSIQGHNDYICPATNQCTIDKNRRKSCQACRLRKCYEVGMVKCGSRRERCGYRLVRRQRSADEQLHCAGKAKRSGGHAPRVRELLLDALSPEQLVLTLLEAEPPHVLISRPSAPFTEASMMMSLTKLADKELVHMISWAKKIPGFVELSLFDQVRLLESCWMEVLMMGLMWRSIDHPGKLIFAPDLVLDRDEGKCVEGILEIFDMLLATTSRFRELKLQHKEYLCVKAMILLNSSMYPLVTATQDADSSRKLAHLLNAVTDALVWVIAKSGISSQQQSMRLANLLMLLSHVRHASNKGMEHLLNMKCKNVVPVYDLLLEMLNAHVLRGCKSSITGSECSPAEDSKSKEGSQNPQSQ
Test: cell-based
Please provide measured EC50 for the entries that follow.
One number for each entry, in nM.

Past entries and their recorded results:
In [3]: df
Out[3]:
                                   compound  endpoint_unit  measured_value
0  Cc1cc(-c2cc(-c3cc(C)c(O)c(C)c3)c(-c3cc(C)c(O)c(C)c3)[se]2)cc(C)c1O [Compound 8c]             nM              17
1  Oc1cc(-c2cc(Br)c(-c3ccc(F)c(O)c3)[se]2)ccc1F [Compound 6f]             nM             300
2  Cc1cc(-c2cc(Br)c(-c3ccc(O)c(C)c3)[se]2)ccc1O [Compound 6c]             nM             441

I would be grateful if you could provide EC50 for each of the following entries.
1. Oc1ccc(-c2ccc(-c3ccc(O)cc3F)[se]2)c(F)c1 [Compound 2f]
2. Oc1ccc(-c2cc(Br)c(-c3ccc(O)cc3)[se]2)cc1 [Compound 6a]
3. Oc1cc(-c2ccc(-c3ccc(F)c(O)c3)[se]2)ccc1F [Compound 2j]
4. Cc1cc(O)ccc1-c1c[se]cc1-c1ccc(O)cc1C [Compound 4b]
5. Cc1cc(-c2c[se]cc2-c2ccc(O)c(C)c2)ccc1O [Compound 4c]

## Result
[170, 13, 150, 34, 1150]

## Task Suppose we examine the compound Cc1cc(O)ccc1-c1ccc(-c2ccc(O)cc2C)[se]1 [Compound 2b] ; what EC50 value has been reported?
## Result 79

----------
Biological target: human ERβ ligand binding domain (LBD) (Homo sapiens, UniProt Q92731)
Experiment: competitive fluorometric
Conditions: ratio of RBA ERβ to RBA ERα
Please provide measured β/α for the entries that follow.
Give bare numbers.

Past entries and their recorded results:
>>> df
                            chemical_smiles  measured_property  measured_value
0    Oc1ccc(-c2c[se]cc2-c2ccc(O)cc2F)c(F)c1                β/α            2.19
1  Cc1cc(-c2cc(-c3ccc(O)c(C)c3)c(-c3ccc(O)c(C)c3)[se]2)ccc1O                β/α            9.92
2  Cc1cc(O)ccc1-c1cc(Br)c(-c2ccc(O)cc2C)[se]1                β/α            0.74

I would be grateful if you could provide β/α for each of the following entries.
1. Oc1ccc(-c2cc(Br)c(-c3ccc(O)cc3)[se]2)cc1
2. Cc1cc(O)ccc1-c1c[se]cc1-c1ccc(O)cc1C
3. Oc1ccc(-c2cc(Br)c(-c3ccc(O)cc3F)[se]2)c(F)c1
4. Cc1cc(O)ccc1-c1ccc(-c2ccc(O)cc2C)[se]1

## Result
1: 2.32; 2: 24.81; 3: 1.30; 4: 1.98
